Consider the following binders and their measured % Binding retained on T-cells, 65° C. readings.
targetOrSystem: T1, CD3 on primary human pan T cells (human, UniProt P07766 23-207)
T1 construct: on cells it stands in the TCR/CD3 complex; also called Pan T-cells (CD3-positive); endogenous CD3
T1 sequence (P07766 23-207 limits assumed): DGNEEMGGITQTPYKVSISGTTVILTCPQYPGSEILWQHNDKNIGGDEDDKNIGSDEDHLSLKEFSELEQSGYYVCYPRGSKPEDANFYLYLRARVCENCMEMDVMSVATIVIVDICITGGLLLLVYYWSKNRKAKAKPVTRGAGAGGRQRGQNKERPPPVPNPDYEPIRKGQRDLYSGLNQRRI
assayProtocol: flow cytometry, pan T-cells

# binder, % Binding retained on T-cells, 65° C. (fraction)
rows = [
    ("CD3B2077 (scFv) scFv: QVQLVQSGAEVKKPGSSVKVSCKASGYTFTRSTMHWVRQAPGQGLEWIGYINPSSAYTNYAQKFQGRVTLTADKSTSTAYMELSSLRSEDTAVYYCASPQVHYDYNGFPYWGQGTLVTVSSGGSEGKSSGSGSESKSTGGSEIVLTQSPATLSASPGERVTLSCSASSSVSYMNWYQQKPGTAPRRWIYDSSKLASGVPARFSGSGSGRDYTLTISSLEPEDFAVYYCQQWSRNPPTFGGGTKVEIK", 0.307),
    ("CD3B2065 (scFv) scFv: QVQLVQSGAEVKKPGSSVKVSCKASGYTFTRSTMHWVKQAPGQGLEWIGYINPSSAYTNYAQKFQGRVTLTADKSTSTAYMELSSLRSEDTAVYYCASPQVHYDYNGFPYWGQGTLVTVSSGGSEGKSSGSGSESKSTGGSEIVLTQSPATLSASPGERVTLSCSASSSVSYMNWYQQKPGQAPRRWIYDSSKLASGVPARFSGSGSGRDYTLTISSLEPEDFAVYYCQQWSRNPPTFGGGTKVEIK", 0.156),
    ("CD3B2089 (scFv) scFv: QVQLVQSGAEVKKPGSSVKVSCKASGYTFTRSTMHWVRQAPGQGLEWMGYINPSSAYTNYAQKFQGRVTLTADKSTSTAYMELSSLRSEDTAVYYCASPQVHYDYNGFPYWGQGTLVTVSSGGSEGKSSGSGSESKSTGGSEIVLTQSPATLSASPGERVTLSCSASSSVSYMNWYQQKPGQAPRRWIYDSSKLASGVPARFSGSGSGRDYTLTISSLEPEDFAVYYCQQWSRNPPTFGGGTKVEIK", 0.111),
]

Data credit: patent US20250145711A1
